Just for reference, PubChem BioAssay (NCATS) is where these values come from.

Biological target: Rap guanine nucleotide exchange factor 3 (Homo sapiens) (UniProt O95398)
Sequence (O95398 whole entry, looked up): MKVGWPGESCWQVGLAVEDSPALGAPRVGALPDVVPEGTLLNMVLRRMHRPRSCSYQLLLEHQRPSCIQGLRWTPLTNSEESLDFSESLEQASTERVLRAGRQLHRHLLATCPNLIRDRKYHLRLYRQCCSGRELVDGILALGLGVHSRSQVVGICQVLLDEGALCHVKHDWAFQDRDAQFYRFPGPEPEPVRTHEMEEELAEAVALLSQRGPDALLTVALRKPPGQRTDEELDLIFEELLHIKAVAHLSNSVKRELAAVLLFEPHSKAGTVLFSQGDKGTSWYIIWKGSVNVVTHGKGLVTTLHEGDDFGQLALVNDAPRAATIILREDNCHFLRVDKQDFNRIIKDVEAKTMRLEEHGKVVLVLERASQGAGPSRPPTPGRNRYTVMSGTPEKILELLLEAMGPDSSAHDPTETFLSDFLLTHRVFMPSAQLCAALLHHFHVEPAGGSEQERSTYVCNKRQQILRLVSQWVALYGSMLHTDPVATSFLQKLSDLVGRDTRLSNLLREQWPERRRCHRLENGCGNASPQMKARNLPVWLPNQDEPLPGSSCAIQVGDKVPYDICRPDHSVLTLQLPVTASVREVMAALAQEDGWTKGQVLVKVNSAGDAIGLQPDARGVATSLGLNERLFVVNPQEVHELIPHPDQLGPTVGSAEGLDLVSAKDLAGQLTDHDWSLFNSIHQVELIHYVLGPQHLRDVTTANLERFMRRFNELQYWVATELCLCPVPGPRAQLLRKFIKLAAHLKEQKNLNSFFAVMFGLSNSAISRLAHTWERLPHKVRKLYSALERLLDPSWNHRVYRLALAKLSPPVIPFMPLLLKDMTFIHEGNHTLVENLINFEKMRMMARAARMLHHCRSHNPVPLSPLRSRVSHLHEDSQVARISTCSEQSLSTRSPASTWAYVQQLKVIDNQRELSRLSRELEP
Experiment: Confirmatory qHTS for agonist of cAMP-regulated guanine nucleotide exchange factor 3 (EPAC1) (AID 1645881);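 note: EPAC1 catalysed release of BODIPY-GDP from Rap1B seen as fluorescence loss; 100% = effect of cAMP agonist control; nearly all actives have a fitted effect of over 75% in size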
Settings: EPAC1 Rap1B BODIPY-GDP exchange fluorescence; series mostly up to 154 µM
Inconclusive results are not listed. The source made the active and inactive calls. Calls come from the whole dose curve; as a rule, active = well fitted activation curve with a large enough effect; inconclusive = small, poorly fitted or top-dose-only effect; inactive = no such curve, though single readings can be large or run the other way.

compound | outcome
CC(NS(=O)(=O)OCC(Cl)(Cl)Cl)c1ccc(Br)cc1 (centres undefined) | inactive
CCC(Oc1ccccc1)C(=O)Nc1ccccc1N1CCCCC1 (centres undefined) | inactive
CC1Cc2nc(SCC(=O)N3CCCc4ccccc43)n(C)c(=O)c2S1 (centres undefined) | inactive
COc1ccc(C(C(=O)NC(C)(C)C)n2c(=O)c(-c3cc4ccccc4[nH]3)nc3ccccc32)cc1 (centres undefined) | inactive

---

Test: qHTS Counterscreen for compound interference against the NCATS DSHEA and TCM libraries (AID 1919978);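 note: compounds preincubated with 1 µM D-luciferin or buffer before detection reagent; % of control where 0% means no effect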
Conditions: firefly luciferase detection reagent interference, luminescence

compound | max response (%)
O=C(/C=C/c1ccc(O)c(O)c1)OC1[C@H](O)CC(O)(C(=O)O)C[C@@H]1O (some centres undefined) | -1.19
CC(C)=CCC[C@](C)(OC1OC(COC2OCC(O)C(O)C2O)C(O)C(O)C1O)[C@H]1CC[C@]2(C)[C@@H]1[C@H](O)C[C@@H]1[C@@]3(C)CC[C@H](OC4OC(CO)C(O)C(O)C4OC4OC(CO)C(O)C(O)C4O)C(C)(C)[C@@H]3CC[C@]12C (some centres undefined) | 4.44
C=C(C)C(CC=C(C)C)CC12CC(CC=C(C)C)C(C)(C)C(CC=C(C)C)(C(=O)/C(=C(\O)c3ccc(O)c(O)c3)C1=O)C2=O (centres undefined) | 3.47
CCCCCCCC/C=C/CCCCCCCC(=O)O | -3.39

---

Experiment: Cell Viability - MRC5 (AID 434);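 note: potency is the fitted concentration of half-maximal effect; cells exposed to compound for 40 hours at 37 °C; potency reflects cytotoxicity seen as loss of intracellular ATP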
Settings: MRC5 lung fibroblast viability, qHTS
Results filed as inconclusive are left out. Activity calls are given as the source filed them. Calls follow the shape of the full dose curve.
Possible outcomes: active, inactive

molecule | qualitative-label
Cc1ccc([N+](=O)[O-])cc1N | inactive
O=C1c2ccccc2C(=O)C1c1ccc2ccccc2n1 | active
CN(C)CCCCCCN(C)C | inactive
COc1c2ccoc2cc2oc(=O)ccc12 | inactive
CCCN(CCC)C(=O)SCC | inactive
C=CCOC(=O)c1ccccc1C(=O)OCC=C | inactive
O=S(=O)(O)c1ccccc1 | inactive
COc1cc(/C=C/c2ccccc2)oc(=O)c1 | inactive
O=NO | inactive
C=CC(=O)OCCOCCOCCOCCOC(=O)C=C | active
Cc1c(N=C=O)cccc1N=C=O | inactive
NC1=NC(S)C2N=CN=C2N1 (configuration not stated) | inactive
c1ccc2c(c1)[nH]c1ccccc12 | inactive
C=C(C)C1CC=C(C)C(O)C1 (configuration not stated) | inactive
CC1(C)CC(N=C=O)CC(C)(CN=C=O)C1 (configuration not stated) | inactive
O=[N+]([O-])c1cccc(Cl)c1Cl | inactive
CCCCCCCCCCCCCCC1CO1 (configuration not stated) | inactive

---

Target: DNA polymerase eta (Homo sapiens) (UniProt Q9Y253)
Sequence (Q9Y253 whole entry, looked up): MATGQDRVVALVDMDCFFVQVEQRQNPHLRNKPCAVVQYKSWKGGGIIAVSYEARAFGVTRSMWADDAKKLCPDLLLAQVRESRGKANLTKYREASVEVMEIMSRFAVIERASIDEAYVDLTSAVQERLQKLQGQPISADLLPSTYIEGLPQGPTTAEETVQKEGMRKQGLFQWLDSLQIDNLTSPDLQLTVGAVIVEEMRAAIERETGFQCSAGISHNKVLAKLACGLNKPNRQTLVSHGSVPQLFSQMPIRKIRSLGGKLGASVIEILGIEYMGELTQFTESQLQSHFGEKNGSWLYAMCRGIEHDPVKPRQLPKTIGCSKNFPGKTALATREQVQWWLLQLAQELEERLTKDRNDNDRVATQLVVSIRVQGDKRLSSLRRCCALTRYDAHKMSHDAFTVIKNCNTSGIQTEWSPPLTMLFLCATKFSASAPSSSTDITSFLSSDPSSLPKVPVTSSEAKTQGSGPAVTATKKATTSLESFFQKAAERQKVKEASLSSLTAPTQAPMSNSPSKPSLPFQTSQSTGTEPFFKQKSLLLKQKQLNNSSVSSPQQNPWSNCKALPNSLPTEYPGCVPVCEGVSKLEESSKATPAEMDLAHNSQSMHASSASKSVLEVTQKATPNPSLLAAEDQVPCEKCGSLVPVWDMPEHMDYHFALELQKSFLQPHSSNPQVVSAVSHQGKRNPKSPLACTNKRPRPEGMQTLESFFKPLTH
Assay: qHTS for Inhibitors of Polymerase Eta: Confirmatory Assay for Cherry-picked Compounds (AID 720502); note: potency is the fitted concentration of half-maximal effect
Conditions: Pol eta primer extension, TAMRA/BHQ fluorescence, 10 min
The other results are listed elsewhere or left out. Results filed as inconclusive are left out. The source made the active and inactive calls. The call rests on the fitted dose curve; in most records, active means well fitted inhibition curve with a large enough effect; inconclusive means small, poorly fitted or top-dose-only effect, or another doubt; inactive means no such curve, though single readings can be large or run the other way.

compound | Potency
CCC(C)Cn1c(O)cc2nn(-c3nc4ccccc4s3)c(=O)c-2c1C (stereo unspecified) | 75.7 µM (active)
COc1cccc(/C=N/Nc2ccc(S(=O)(=O)Nc3ccccc3C(=O)O)cc2[N+](=O)[O-])c1O | 67.5 µM (active)
Cc1ccc(N=C2NC(=O)/C(=C/C=C/c3ccco3)S2)cc1C | 53.6 µM (active)
N#Cc1c(N2CCCCC2)nc(N)c2c(N)nc(SCC(=O)O)cc12 | 19 µM (active)
CCOc1ccc(NC(=O)c2ccc(NC(=O)COC(=O)c3ccc(NC(=O)CC#N)cc3)cc2)cc1 | 75.7 µM (active)
O=C(O)c1ccc2c(c1)C(=O)N(c1ccc(/C=C/C(=O)c3ccccc3)cc1)C2=O | 33.8 µM (active)

---

Molecular target: Rap guanine nucleotide exchange factor 4 (Homo sapiens)
Assay: Confirmatory qHTS for agonist of cAMP-regulated guanine nucleotide exchange factor 4 (EPAC2) (AID 1645884);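 note: nucleotide exchange releases bodipy-GDP from Rap1 and this lowers its fluorescence; % is set by controls: 0 for no effect and ±100 for the full control effect; nearly all actives have a fitted effect of over 65% in size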
Conditions: EPAC2 GEF activity, Rap1B-BODIPY-GDP fluorescence; series mostly up to 154 µM
Inconclusive results are not listed. Active and inactive are the calls of the source. The call rests on the fitted dose curve; in most records, active means well fitted activation curve with a large enough effect; inconclusive means small, poorly fitted or top-dose-only effect; inactive means no such curve, though single readings can be large or run the other way.

molecule | activation
COc1ccc2c(c1)Cc1sc(NC(=O)c3ccccc3C)nc1-2 | inactive
O=C1CCCC2=C1C(c1ccc(O)c(O)c1)Nc1ccc3ccccc3c12 (configuration not stated) | inactive
O=C(CSc1ccc(-c2ccco2)nn1)c1ccc(F)cc1 | inactive
CCC(CC)c1nnc(NC(=O)CSCc2c(C)noc2C)s1 | inactive
COCOCCn1cc(CN2CCS(=O)(=O)N(Cc3ccc(-c4ccc(F)cc4)cc3)C(CC(C)C)C2=O)nn1 (configuration not stated) | inactive
O=C(COC(=O)[C@@H]1CC(O)CN1S(=O)(=O)c1ccc(Cl)c(Cl)c1)NC(=O)NCc1ccccc1 (some centres not stated) | inactive
CCOC(=O)N1CCc2c(sc3c2c(=O)n(-c2ccc(F)cc2)c(=O)n3CC(=O)c2ccc(Cl)cc2)C1 | inactive
CCc1cc(=O)oc2cc(C)cc(OCC(=O)N[C@@H](CSCc3ccccc3)C(=O)O)c12 | inactive
O=C(Cn1cnc2c(nnn2Cc2ccccc2)c1=O)N1CCN(c2ccccc2)CC1 | inactive
Cc1cc(/C=C2\SC(=S)NC2=O)cc(C)c1O | inactive
COc1ccc(-c2cnnc(N/N=C/c3ccc(O)c(O)c3)n2)cc1 | inactive
COc1ccc(-c2nn(-c3ccccc3)cc2/C=C2/SC(=S)N(CCCC(=O)O)C2=O)c(C)c1 | inactive
Cc1cccc(C)c1-n1cccc1/C=C1\SC(=S)N(c2cccc(C(=O)O)c2)C1=O | inactive
Cc1cc(C)c(S(=O)(=O)N2CCCC2)c(C)c1 | inactive
CN1CCc2c(sc(NC(=O)CSc3ccccc3)c2-c2nc3ccccc3s2)C1 | inactive
COc1ccc(S(=O)(=O)Nc2cccc(C)c2C)c2cccnc12 | inactive
O=C1C(Cl)=C(NCCc2ccccc2)C(=O)c2ccccc21 | inactive
Oc1ccc(NCc2ccc(OCc3ccccc3Cl)cc2)cc1 | inactive
O=C(CSc1nc(-c2ccc(F)cc2)nc2ccc(F)cc12)Nc1cccc(C(=O)O)c1 | inactive
Fc1ccc(-c2nc3ccc(Br)cn3c2Cc2cccc(F)c2)cc1 | inactive
O=C(CSc1nccn1C1CCCC1)Nc1cc(C(F)(F)F)ccc1Cl | inactive
COc1ccc(OC)c(NC2c3ccccc3C(=O)N2c2cccnc2)c1 (configuration not stated) | inactive
Cc1cccc(C)c1Nc1nn2c(=O)c3cc4c(cc3nc2s1)OCO4 | inactive
Cc1ccc(-c2cn3nc(-c4ccccc4)c(-c4ccccc4)nc3n2)cc1 | inactive
COc1ccc(C2c3ccsc3CCN2C(C)=O)cc1 (configuration not stated) | inactive
CCOc1ccccc1NC(=O)CSc1nccn1-c1cccc(C)c1 | inactive
O=C(c1ccc2c(c1)CCCC2)N1CCN(c2nc3ccc(F)cc3s2)CC1 | inactive
O=S(=O)(Nc1ccccc1N1CCCC1)c1ccccc1C(F)(F)F | inactive
O=C(CSc1nc2ccsc2c(=O)n1CC1CCC(C(=O)O)CC1)c1ccc(Cl)cc1 (configuration not stated) | inactive

---

Target: Rap guanine nucleotide exchange factor 3 (Homo sapiens) (UniProt O95398)
Test: Confirmatory qHTS for antagonist of cAMP-regulated guanine nucleotide exchange factor 3 (EPAC1) (AID 1645880); note: nearly all actives have a fitted effect of over 55% in size; note: potency is the fitted concentration of half-maximal effect
Details: EPAC1 Rap1B-BODIPY-GDP exchange, fluorescence
Inconclusive results are not listed. Activity calls are given as the source filed them. Calls come from the whole dose curve; as a rule, active = well fitted inhibition curve with a large enough effect; inconclusive = small, poorly fitted or top-dose-only effect; inactive = no such curve, though single readings can be large or run the other way.

smiles-representation | target-under-test | Potency
CCOc1cc(/C=C2/SC(=S)NC2=O)ccc1OC(=O)c1ccco1 | Rap guanine nucleotide exchange factor 3 (Homo sapiens) (UniProt O95398) | 37.9 µM (active)
N=C(N)c1ccc(N=Nc2c(O)ccc3c2[nH]c2ccccc23)cc1 | Rap guanine nucleotide exchange factor 3 (Homo sapiens) (UniProt O95398) | 56.2 µM (active)
COc1ccc(-c2c(-c3ccccc3OC)oc3ccccc23)cn1 | Rap guanine nucleotide exchange factor 3 (Homo sapiens) (UniProt O95398) | inactive
COc1ccc(/C=C2/SC(=S)N(NS(=O)(=O)c3ccc(C)cc3)C2=O)cc1 | Rap guanine nucleotide exchange factor 3 (Homo sapiens) (UniProt O95398) | 47.8 µM (active)
Cc1cccc(N2C(=O)c3cccc4c(N(C)CCO)ccc(c34)C2=O)c1 | Rap guanine nucleotide exchange factor 3 (Homo sapiens) (UniProt O95398) | inactive
CCOC(=O)/C(C#N)=C/c1ccc(N2CCN(Cc3ccccc3)CC2)cc1 | Rap guanine nucleotide exchange factor 3 (Homo sapiens) (UniProt O95398) | inactive
